Target: Purified human 20S proteasome (Homo sapiens, UniProt P28072+P28074+Q99436)
Construct: purchased Boston Biochem (Boston, MA)
Assay: Proteasome activity assay on purified 20S proteasome (fluorogenic substrates)
Type: biochemical
Details: 2 h incubation, read-out: IC50 Chymotrypsin-like activity
pIC50: −log10 of the molar value.
VALUE_KIND: pIC50

MOLECULE | REPORTED_VALUE
C[N+](CC(=O)NCC(=O)OC(C)(C)C)=C1[S][Au-]([Br])([Br])[S]1 [AuD6, [Au^IIIBr2(dtc-Sar-AA-O(t-Bu))]] | 6.38
C[N+](CC(=O)NC(C)(C)C(=O)OC(C)(C)C)=C1[S][Au-]([Br])([Br])[S]1 [AuD8, [Au^IIIBr2(dtc-Sar-AA-O(t-Bu))]] | 6.54

Values from paper PMC3879379
